# Tested on: LacI lactose operon repressor (SEQ ID NO 11), LacI-T7 system (Phy-spank-T7 RNAP / PT7lac, sfgfp reporter)
# ASSAY_NOTES: IPTG dose response of the LacI-T7 inducible promoter system (steady state transfer function, sfGFP fluorescence by flow cytometry)
# Assay type: cell-based, B. subtilis PY79
# CONDITION_DETAILS: Bacillus subtilis, IPTG detection threshold, sfGFP fluorescence, Hill function fit, read-out: 50% activation concentration

{"columns": ["MOLECULE", "EC50"],
 "data": [
  ["CC(C)S[C@@H]1O[C@H](CO)[C@H](O)[C@H](O)[C@H]1O [IPTG, Isopropyl β-D-1-thiogalactopyranoside]", "54.1 µM"]
]}
